- System: SF-539 CNS
- assayOverview: NCI-60 one-dose screen, 48 h (100 = growth as untreated, 0 = no growth, -100 = all killed)
- experimentalContext: 10 µM unless noted
Compounds without any hit were thinned out: in the full panel of roughly 83,000, 20% have a hit.
Lab note: cut-off is 60%. Strictly less in growth is class 1. Exactly 60% or more is class 0.

// query Identify whether the compound `O=C1[C@H]2Cc3c([nH]c4ccccc34)[C@H](c3ccc(Br)cc3)N2C(=O)CN1C1CCN(CC2CCCCC2)CC1` records growth below 60%.
// result class 0

// query Moving on to `O=C(COc1ccc(/C=C2\C(=O)Nc3ccc(Cl)cc32)cc1)Nc1ccc(Cl)cc1`
// result class 0

// query Moving on to `CC(=O)OC[C@@]12Oc3c(cccc3-c3ccc(O)c4c3O[C@]3(COC(C)=O)C(=C4O)C(=O)C[C@H](C)[C@@H]3OC(C)=O)C(O)=C1C(=O)C[C@H](C)[C@@H]2OC(C)=O`
// result class 1

// query Moving on to `CN1CCN(c2ccc(Nc3nc(NCCNS(=O)(=O)c4ccc5ccccc5c4)c4sccc4n3)cc2)CC1`
// result class 0

// query Moving on to `COC(=O)CCSC1=C(C)C(=O)c2ccccc2C1=O`
// result class 0

// query Moving on to `N#Cc1c(-c2ccc(F)cc2)cc(-c2c[nH]c3ccccc23)nc1-c1c[nH]c2ccccc12`
// result class 0

// query Moving on to `COc1ccc(/C(=N\N=C(N)N)c2ccc(Cl)cc2)cc1OC`
// result class 0

// query Moving on to `CN1CCN(c2ccc(Nc3nc(NCCCNS(=O)(=O)c4ccc(Cl)cc4)c4sccc4n3)cc2)CC1`
// result class 1

// query Moving on to `Cn1c2nc3ccccc3c-2cc2ccccc21`
// result class 1

// query Moving on to CC1CC(=O)C2=C(C1)Nc1ccc(Br)cc1CC2c1c[nH]c2ccc(Br)cc12 (centres undefined)
// result class 1

// query Moving on to `NS(=O)(=O)c1ccc(Nc2nc(N/N=C/c3ccc4c(c3)OCO4)nc(Nc3ccccc3)n2)cc1`
// result class 1

// query Moving on to `CCCCSC1=C(Cl)CN(c2ccc(Cl)cc2)C1=O`
// result class 0

// query Moving on to `C=C(C)[C@@H]1CC[C@]2(COCCCNCCCN)CC[C@]3(C)[C@H](CC[C@@H]4[C@@]5(C)CC[C@H](O)C(C)(C)[C@@H]5CC[C@]43C)[C@@H]12`
// result class 1

// query Moving on to `Fc1cc(F)cc(NNC(=S)c2ccccc2)c1`
// result class 0

// query Moving on to CC(O)c1cccc(/C(N)=N/C(N)=N/c2nc3ccccc3s2)c1 (centres undefined)
// result class 0

// query Moving on to `CC1=C(C)C(=O)C(Nc2cccc(C(=O)OC(C)(C)C)c2)=CC1=O`
// result class 0

// query Moving on to NS(=O)(=O)c1ccc(Nc2nc(Nc3ccccc3)nc(N3N=C(c4ccc(Cl)cc4)CC3c3ccc(Cl)cc3)n2)cc1 (centres undefined)
// result class 1

// query Moving on to `O=C(N/N=C\c1ccc(F)cc1)c1ccc2nc(-c3ccc(Br)cc3)[nH]c2c1`
// result class 1

// query Moving on to `CC(=C(c1ccc(OCCN(C)C)cc1)c1ccc(OCCN(C)C)cc1)c1ccc(Cl)cc1`
// result class 1

// query Moving on to `COc1ccc(NC(=O)CCCCCCNC(=O)C(O)(O)C(F)(F)F)cc1`
// result class 1

// query Moving on to `C#CCN(C)CCCOc1ccc(NCc2ccc(/C=C/C(=O)NO)cc2)cc1Cl`
// result class 1

// query Moving on to NC1C2CCC1CN(c1cnc(C(=O)Nc3cc(F)cc4cccnc34)cn1)C2 (centres undefined)
// result class 0

// query Moving on to `O=C(/C=C/C=C/c1csc(Br)n1)NO`
// result class 0

// query Moving on to `COc1ccc2c(c1)c(-c1nc(N)nnc1-c1c[nH]c3ccccc13)cn2C`
// result class 1

// query Moving on to `Fc1cccc(Cl)c1/C=N/Nc1nc(N/N=C/c2c(F)cccc2Cl)nc(N2CCCCC2)n1`
// result class 1

// query Moving on to `O=C(/C=C/c1cc(Cl)ccc1Cl)Nc1ncc(Cc2ccc(Cl)cc2)s1`
// result class 1

// query Moving on to `CS(=O)(=O)c1ccc(/C(=N/N=C(N)N)c2ccc(Cl)cc2)cc1`
// result class 0

// query Moving on to `CC(=O)c1cc(C(=O)N2c3ccccc3Sc3ccccc32)n2c1ccc1ccccc12`
// result class 0

// query Moving on to `Cn1c(SCC(=O)c2ccc(Br)cc2)nc2ccccc2c1=O`
// result class 0

// query Moving on to `Cc1ccccc1N1CCN(C2=C(Cl)C(=O)c3ncccc3C2=O)CC1`
// result class 0

// query Moving on to `Cc1cc2nc(C(Cl)Cl)nc(-c3ccc(S(=O)(=O)N(C)C)cc3)n2n1`
// result class 0

// query Moving on to `COc1ccc2sc(NC(=O)CCCCCCNC(=O)C(O)(O)C(F)(F)F)nc2c1`
// result class 1

// query Moving on to `COc1ccc(-c2nc(C#N)c(N3CCC(S(=O)(=O)N4CCOCC4)CC3)o2)cc1`
// result class 0

// query Moving on to `COc1cc(-c2nc(-c3ccccc3)[nH]c2-c2ccnc(NCCCNS(=O)(=O)c3cccc(F)c3)n2)ccc1F`
// result class 0

// query Moving on to `O=C1/C(=C/C=C/c2ccco2)SC(=S)N1Cc1ccccc1`
// result class 0

// query Moving on to O=C1c2ccccc2C23C(=C(c4cncnc4)c4ccccc42)CCCN13 (centres undefined)
// result class 0

// query Moving on to `O=C(COc1ccc(/C=C2\C(=O)Nc3ccc(F)cc32)cc1)Nc1ccccc1`
// result class 0

// data source = PubChem BioAssay (NCI)
